Measured Ki on Kappa-type opioid receptor (Cavia porcellus) follows.
Sequence (P41144 whole entry): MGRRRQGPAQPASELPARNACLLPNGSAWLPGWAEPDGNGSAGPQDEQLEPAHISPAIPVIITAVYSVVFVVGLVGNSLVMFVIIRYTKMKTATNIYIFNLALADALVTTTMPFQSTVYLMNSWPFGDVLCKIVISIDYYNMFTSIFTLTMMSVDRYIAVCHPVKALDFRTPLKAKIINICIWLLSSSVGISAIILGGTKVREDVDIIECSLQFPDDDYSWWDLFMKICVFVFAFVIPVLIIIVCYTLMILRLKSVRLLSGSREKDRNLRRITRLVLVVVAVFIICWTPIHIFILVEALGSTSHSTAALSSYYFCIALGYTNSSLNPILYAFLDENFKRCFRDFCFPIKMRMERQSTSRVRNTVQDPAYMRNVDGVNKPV
measured_parameter: Ki (µM)

• Cc1cc(O)cc(C)c1C[C@@H]1NC(=O)C[C@H](CCCCN)NC(=O)[C@H](Cc2ccccc2)NC(=O)[C@@H](CCCNC(=N)N)NC1=O = 0.000786
• C[C@@H](O)[C@H](NC(=O)[C@H]1NC(=O)[C@H]([C@@H](C)O)NC(=O)[C@H](CCCN)NC(=O)[C@@H](Cc2c[nH]c3ccccc23)NC(=O)[C@H](Cc2ccc(O)cc2)NC(=O)[C@@H](NC(=O)[C@H](N)Cc2ccccc2)CSSC1(C)C)C(N)=O = 14.9

====

- assay: Metabolic stability in rat plasma assessed as compound degradation at 37 degC measured after 2 hrs by reverse-phase HPLC analysis
- Format: ADME, cell-free
- condition_details: read-out: Drug degradation
measured_parameter: metabolised at 2 h (%)

• C[C@@H](O)[C@H](NC(=O)[C@H]1NC(=O)[C@H]([C@@H](C)O)NC(=O)[C@H](CCCN)NC(=O)[C@@H](Cc2c[nH]c3ccccc23)NC(=O)[C@H](Cc2ccc(O)cc2)NC(=O)[C@@H](NC(=O)[C@H](N)Cc2ccccc2)CSSC1(C)C)C(N)=O = 25

====

In this section, each of the molecules is paired with its reported Ratio Ki.
- Species: Rattus norvegicus
- assay: Selectivity ratio of Ki for DOR in rat brain membrane to Ki for MOR in rat brain membrane
- Assay type: cell membranes
measured_parameter: Ratio Ki

- Cc1cc(O)cc(C)c1C[C@@H]1NC(=O)[C@H](CCCCN)NC(=O)[C@H](Cc2ccccc2)NC(=O)[C@@H](CCCNC(N)=O)NC1=O: 52
- Cc1cc(O)cc(C)c1C[C@@H]1NC[C@H](CCCCN)NC(=O)[C@H](Cc2ccccc2)NC(=O)[C@@H](CCCNC(=N)N)NC1=O: 47
- Cc1cc(O)cc(C)c1C[C@@H]1NC(=O)C[C@H](CCCCN)NC(=O)[C@H](Cc2ccccc2)NC(=O)[C@@H](CCCNC(=N)N)NC1=O: 135
- Cc1cc(O)cc(C)c1C[C@@H]1NC(=O)[C@H](CCCCN)NC(=O)[C@H](Cc2ccccc2)NC(=O)[C@@H](CCCCNC(=N)N)NC1=O: 25

====

- assay: Cmax in CD-1 mouse brain at 2 mg/kg, iv measured after 30 mins by LC-MS/MS analysis
- Assay type: ADME, organism-based
- Parameters: dose 2 mg/kg, route intravenous
measured_parameter: Cmax (ng/g)

* Cc1cc(O)cc(C)c1C[C@@H]1NC(=O)[C@H](CCCCN)NC(=O)[C@H](Cc2ccccc2)NC(=O)[C@@H](CCCNC(=N)N)NC1=O | 0.6

====

Measured Ki values are reported for all entries that follow.
- system: Delta-type opioid receptor (Rattus norvegicus, UniProt P33533)
- Sequence (P33533 whole entry): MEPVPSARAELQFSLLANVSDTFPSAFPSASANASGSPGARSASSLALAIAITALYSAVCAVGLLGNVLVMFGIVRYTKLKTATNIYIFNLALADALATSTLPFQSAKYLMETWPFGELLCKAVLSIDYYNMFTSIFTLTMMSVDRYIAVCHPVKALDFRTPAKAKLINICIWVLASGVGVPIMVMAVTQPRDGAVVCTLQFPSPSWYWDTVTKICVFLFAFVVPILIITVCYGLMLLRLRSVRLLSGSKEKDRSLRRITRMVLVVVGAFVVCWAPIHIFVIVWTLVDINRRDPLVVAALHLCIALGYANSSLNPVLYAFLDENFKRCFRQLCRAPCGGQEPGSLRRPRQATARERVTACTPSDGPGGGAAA
- assay: Displacement of [3H]DSLET from DOR in rat brain membrane measured after 2 hrs
measured_parameter: Ki (nM)

• C[C@@H](O)[C@H](NC(=O)[C@H]1NC(=O)[C@H]([C@@H](C)O)NC(=O)[C@H](CCCN)NC(=O)[C@@H](Cc2c[nH]c3ccccc23)NC(=O)[C@H](Cc2ccc(O)cc2)NC(=O)[C@@H](NC(=O)[C@H](N)Cc2ccccc2)CSSC1(C)C)C(N)=O = 258
• Cc1cc(O)cc(C)c1C[C@@H]1NC(=O)C[C@H](CCCCN)NC(=O)[C@H](Cc2ccccc2)NC(=O)[C@@H](CCCNC(=N)N)NC1=O = 16.7
